- Assay Details: Protein binding in Beagle dog serum
- Assay type: ADME, cell-free, Canis lupus familiaris
- Measurement Setup: read-out: PPB (converted)
Measured Metric: fraction unbound
Please state the value as a number alone, without comment.

| Mol | Numeric Readout |
| --- | --- |
| CCOC(=O)COc1ccc2c(c1)C[C@@H](NC[C@H](O)c1cccc(Cl)c1)CCC2 | 0.06 |
| CC(C)Oc1cc(-c2ccc(CCNC[C@H](O)c3ccccc3)cc2)ccc1C(=O)O | 0.14 |

Okay, next one:
Task item: Identify the reported fraction unbound for the following entry. "CC(C)Cc1cc(-c2ccc(CCNC[C@H](O)c3ccc(N)nc3)cc2)ccc1C(=O)O"
Reply: 0.2

----------
pEC50 for assorted molecules
- Tested On: Beta-3 adrenergic receptor (Canis lupus familiaris, UniProt O02662)
- Sequence (O02662 whole entry): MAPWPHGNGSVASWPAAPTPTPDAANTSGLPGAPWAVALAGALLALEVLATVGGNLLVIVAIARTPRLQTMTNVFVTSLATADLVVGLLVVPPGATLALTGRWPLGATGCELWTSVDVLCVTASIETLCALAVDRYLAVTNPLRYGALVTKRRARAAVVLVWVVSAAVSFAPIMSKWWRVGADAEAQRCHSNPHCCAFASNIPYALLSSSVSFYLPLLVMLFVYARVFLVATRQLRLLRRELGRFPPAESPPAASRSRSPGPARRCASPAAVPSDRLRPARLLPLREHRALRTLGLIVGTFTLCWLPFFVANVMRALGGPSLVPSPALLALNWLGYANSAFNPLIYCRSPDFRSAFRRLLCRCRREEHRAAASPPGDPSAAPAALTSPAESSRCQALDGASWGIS
- Assay Details: Agonist activity at dog recombinant beta3 adrenergic receptor expressed in CHO cells assessed as cAMP accumulation by enzyme immuno assay
// returns pEC50 (minus log10 of molar concentration), number only

For orientation, consider the following solved cases.
| Mol | pEC50 |
| --- | --- |
| CC(C)Oc1cc(-c2ccc(CCN[C@@H](C)[C@H](O)c3ccccc3)cc2)ccc1C(=O)O | 8.43 |
| CC(C)Cc1cc(-c2ccc(CCNC[C@H](O)c3ccc(N)nc3)cc2)ccc1C(=O)O | 8.49 |
| CCCOc1cc(-c2ccc(C[C@@H](C)NC[C@H](O)c3cccnc3)cc2)ccc1C(=O)O | 9.29 |
| CC(C)Oc1cc(-c2ccc(C[C@@H](C)NC[C@H](O)c3ccccc3)cc2)ccc1C(=O)O | 9.72 |
| CC(C)Oc1cc(-c2ccc(CCNC[C@H](O)c3cccnc3)cc2)ccc1C(=O)O | 7.96 |

Task item: Identify the reported pEC50 for the following entry. "O=C(O)c1ccc(-c2ccc(CCNC[C@H](O)c3cccnc3)cc2)cc1OC1CCCCC1"
Reply: 8.89

----------
- Tested On: Beta-2 adrenergic receptor (Homo sapiens, UniProt P07550)
- Sequence (P07550 whole entry): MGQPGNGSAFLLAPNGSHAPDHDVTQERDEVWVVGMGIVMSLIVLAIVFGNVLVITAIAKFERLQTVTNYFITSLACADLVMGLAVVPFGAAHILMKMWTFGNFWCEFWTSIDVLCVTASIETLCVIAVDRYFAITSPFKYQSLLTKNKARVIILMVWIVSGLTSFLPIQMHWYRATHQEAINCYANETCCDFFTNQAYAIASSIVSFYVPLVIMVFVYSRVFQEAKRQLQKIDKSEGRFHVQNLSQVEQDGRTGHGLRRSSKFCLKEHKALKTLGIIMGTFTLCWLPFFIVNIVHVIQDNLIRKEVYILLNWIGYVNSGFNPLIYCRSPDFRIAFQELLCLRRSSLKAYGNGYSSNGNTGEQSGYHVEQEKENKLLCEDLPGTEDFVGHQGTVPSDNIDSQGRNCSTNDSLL
- Assay Details: Agonist activity at human recombinant beta2 adrenergic receptor expressed in CHO cells assessed as cAMP accumulation by enzyme immuno assay
Measured Metric: EC50

For orientation, consider the following solved cases.
| Mol | EC50 |
| --- | --- |
| CC(C)Oc1cc(-c2ccc(CCNC[C@H](O)c3cccnc3)cc2)ccc1C(=O)O | > 10 µM |
| C[C@H](Cc1ccc(-c2ccc(C(=O)O)cc2)cc1)NC[C@H](O)c1ccccc1 | > 1 µM |
| CC(C)Cc1cc(-c2ccc(CCNC[C@H](O)c3ccc(N)nc3)cc2)ccc1C(=O)O | 3.2 µM |

Task item: Recall the reported EC50 of "CC(C)Oc1cc(-c2ccc(C[C@@H](C)NC[C@H](O)c3cccnc3)cc2)ccc1C(=O)O" when tested on Beta-2 adrenergic receptor (Homo sapiens, UniProt P07550).
Reply: > 1 µM

Task item: Recall the reported EC50 of "CC(C)Oc1cc(-c2ccc(CCNC[C@H](O)c3ccc(N)nc3)cc2)ccc1C(=O)O" when tested on Beta-2 adrenergic receptor (Homo sapiens, UniProt P07550).
Reply: > 10 µM

Task item: Recall the reported EC50 of "CC(C)Oc1cc(-c2ccc(C[C@@H](C)NC[C@H](O)c3ccccc3)cc2)ccc1C(=O)O" when tested on Beta-2 adrenergic receptor (Homo sapiens, UniProt P07550).
Reply: > 10 µM

Task item: Recall the reported EC50 of "CCCOc1cc(-c2ccc(C[C@@H](C)NC[C@H](O)c3cccnc3)cc2)ccc1C(=O)O" when tested on Beta-2 adrenergic receptor (Homo sapiens, UniProt P07550).
Reply: > 1 µM

Task item: Recall the reported EC50 of "Nc1ccc([C@@H](O)CNCCc2ccc(-c3ccc(C(=O)O)c(OC4CCCCC4)c3)cc2)cn1" when tested on Beta-2 adrenergic receptor (Homo sapiens, UniProt P07550).
Reply: 1.1 µM

Task item: Recall the reported EC50 of "C[C@H](Cc1ccc(-c2ccc(C(=O)O)cc2)cc1)NC[C@H](O)c1cccnc1" when tested on Beta-2 adrenergic receptor (Homo sapiens, UniProt P07550).
Reply: > 1 µM

----------
- Tested On: Beta-1 adrenergic receptor (Homo sapiens)
- Sequence (P08588 whole entry): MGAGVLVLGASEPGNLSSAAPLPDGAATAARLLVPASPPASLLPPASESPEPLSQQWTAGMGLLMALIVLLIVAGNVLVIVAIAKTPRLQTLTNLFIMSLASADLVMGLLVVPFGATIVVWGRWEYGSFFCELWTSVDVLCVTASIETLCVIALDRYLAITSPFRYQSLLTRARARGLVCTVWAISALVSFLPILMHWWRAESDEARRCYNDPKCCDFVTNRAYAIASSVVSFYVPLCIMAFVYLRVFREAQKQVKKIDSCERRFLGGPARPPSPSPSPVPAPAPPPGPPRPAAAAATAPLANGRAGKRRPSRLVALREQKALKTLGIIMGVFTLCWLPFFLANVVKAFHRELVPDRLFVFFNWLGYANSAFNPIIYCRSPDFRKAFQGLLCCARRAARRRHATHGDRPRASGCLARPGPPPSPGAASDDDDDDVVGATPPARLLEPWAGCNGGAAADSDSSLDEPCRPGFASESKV
- Assay Details: Agonist activity at human recombinant beta-1 adrenergic receptor expressed in CHO cells assessed as cAMP accumulation by enzyme immuno assay
pEC50 for assorted molecules
// returns pEC50 (minus log10 of molar concentration), number only

| Mol | Numeric Readout |
| --- | --- |
| CC(C)Oc1cc(-c2ccc(C[C@@H](C)NC[C@H](O)c3ccccc3)cc2)ccc1C(=O)O | 7.07 |
| CCCOc1cc(-c2ccc(C[C@@H](C)NC[C@H](O)c3cccnc3)cc2)ccc1C(=O)O | 6.72 |
| CC(C)COc1cc(-c2ccc(C[C@@H](C)NC[C@H](O)c3ccccc3)cc2)ccc1C(=O)O | 6.89 |
| CC(C)Oc1cc(-c2ccc(CCNC[C@H](O)c3cccc(O)c3)cc2)ccc1C(=O)O | 6.36 |
| O=C(O)c1ccc(-c2ccc(OCCNC[C@H](O)c3cccc(Cl)c3)cc2)cc1OC1CCCCC1 | 7.28 |

Task item: Identify the reported pEC50 for the following entry. "CC(C)Cc1cc(-c2ccc(OCCNC[C@H](O)c3ccc(N)nc3)cc2)ccc1C(=O)O"
Reply: 7.92

Task item: Identify the reported pEC50 for the following entry. "CC(C)COc1cc(-c2ccc(OCCNC[C@H](O)c3ccccc3)cc2)ccc1C(=O)O"
Reply: 6.40

Task item: Identify the reported pEC50 for the following entry. "C[C@H](Cc1ccc(-c2ccc(C(=O)O)c(OC3CCCCC3)c2)cc1)NC[C@H](O)c1ccccc1"
Reply: 7.55

Task item: Identify the reported pEC50 for the following entry. "CCOc1cc(-c2ccc(C[C@@H](C)NC[C@H](O)c3ccccc3)cc2)ccc1C(=O)O"
Reply: 7.21

Task item: Identify the reported pEC50 for the following entry. "CC(C)Oc1cc(-c2ccc(C[C@@H](C)NC[C@H](O)c3cccc(Cl)c3)cc2)ccc1C(=O)O"
Reply: 7.43

Task item: Identify the reported pEC50 for the following entry. "O=C(O)c1ccc(-c2ccc(CCNC[C@H](O)c3cccnc3)cc2)cc1OC1CCCCC1"
Reply: 6.32

Task item: Identify the reported pEC50 for the following entry. "CC(C)Oc1cc(-c2ccc(OCCNC[C@H](O)c3ccccc3)cc2)ccc1C(=O)O"
Reply: 6.29

Task item: Identify the reported pEC50 for the following entry. "CC(C)Oc1cc(-c2ccc(CCNC[C@H](O)c3cccc(F)c3)cc2)ccc1C(=O)O"
Reply: 6.49

----------
- Assay Details: Total clearance in dog at 0.32 mg/kg, iv
- Format: ADME, organism-based, Canis lupus familiaris
- Design: dose 0.32 mg/kg, route intravenous
- Measurement Setup: in vivo
clearance for assorted compounds
Give the quantity in mL/min/kg, number only.

For orientation, consider the following solved cases.
| Mol | clearance [mL/min/kg] |
| --- | --- |
| CC(C)Oc1cc(-c2ccc(CCNC[C@H](O)c3cccnc3)cc2)ccc1C(=O)O | 6.4 |
| CC(C)Cc1cc(-c2ccc(CCNC[C@H](O)c3ccc(N)nc3)cc2)ccc1C(=O)O | 7.9 |

Okay, next one:
Task item: Identify the reported clearance for the following entry. "O=C(O)c1ccc(-c2ccc(CCNC[C@H](O)c3cccnc3)cc2)cc1OC1CCCCC1"
Reply: 47.7

----------
- Assay Details: AUC (0 to 24 hrs) in dog at 0.1 mg/kg, po
- Assay type: ADME, organism-based, Canis lupus familiaris
- Parameters: time < 24 hr, dose 0.1 mg/kg, route oral
- Measurement Setup: plasma
Measured Metric: AUC(0-t) at 24 h (ng·h/mL)
Give the quantity in ng·h/mL, number only.

For orientation, consider the following solved cases.
| Mol | AUC(0-t) at 24 h / ng·h/mL |
| --- | --- |
| C[C@H](Cc1ccc(-c2ccc(C(=O)O)cc2)cc1)NC[C@H](O)c1cccnc1 | 207 |
| CC(C)Oc1cc(-c2ccc(C[C@@H](C)NC[C@H](O)c3ccccc3)cc2)ccc1C(=O)O | 162 |
| CC(C)Oc1cc(-c2ccc(CCN[C@@H](C)[C@H](O)c3ccccc3)cc2)ccc1C(=O)O | 134 |

Okay, next one:
Task item: Identify the reported AUC(0-t) at 24 h for the following entry. "CCCOc1cc(-c2ccc(C[C@@H](C)NC[C@H](O)c3cccnc3)cc2)ccc1C(=O)O"
Reply: 35.5

----------
- Assay Details: Cmax in rat at 0.34 mg/kg, po by cassette assay
- Format: ADME, organism-based
- Set-up: dose 0.34 mg/kg, route oral
- Measurement Setup: in vivo
Measured Metric: Cmax (ng/mL)
Give the quantity in ng/mL, number only.

Task item: Identify the reported Cmax for the following entry. "CC(C)Oc1cc(-c2ccc(CCN[C@@H](C)[C@H](O)c3ccccc3)cc2)ccc1C(=O)O"
Reply: 125
